SYSTEM_UNDER_TEST: KRas G12S (Homo sapiens, UniProt P01116, G12S)
Construct: Biotinylated KRas (corresponding to amino acids 1-169, produced at Accelegan Inc.); biotin (biotinylated); purchased Accelegan Inc
Sequence (P01116 1-169 isoform P01116-2 G12S): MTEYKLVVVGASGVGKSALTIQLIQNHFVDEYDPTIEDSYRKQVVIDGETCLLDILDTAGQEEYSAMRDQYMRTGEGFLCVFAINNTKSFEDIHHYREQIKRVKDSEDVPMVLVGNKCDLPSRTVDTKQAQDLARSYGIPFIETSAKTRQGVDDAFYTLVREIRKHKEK
TEST_METHOD_NOTES: KRas binding assay, TR-FRET displacement of Cy5 labelled tracer
ASSAY_CONDITIONS: 60-minute incubation at room temperature, 1% DMSO, pH 7.5
OBSERVATION_TYPE: IC50 (nM)

CCc1c(F)ccc2cc(O)cc(-c3ncc4c(N(C)CCCC(=O)NC(C)=O)nc(OC[C@@]56CCCN5C[C@H](F)C6)nc4c3F)c12 [Example 325]: 14

(I) CCc1c(F)ccc2cc(O)cc(-c3ncc4c(NCCC(=O)n5ccc(C)n5)nc(OC[C@@]56CCCN5C[C@H](F)C6)nc4c3F)c12 [Example 122]
(II) CCc1c(F)ccc2cc(O)cc(-c3ncc4c(N5CCOCC(C(=O)n6ccc(C)n6)C5)nc(OC[C@@]56CCCN5C[C@H](F)C6)nc4c3F)c12 (stereo partly drawn) [Example 77]
// returns I or II , whichever has the lower IC50 Give the chosen item's label as your response.
I

(A) CCc1c(F)ccc2cc(O)cc(-c3ncc4c(N5CCN(C(=O)n6ccc(C)n6)C(C(F)(F)F)C5)nc(OC[C@@]56CCCN5C[C@H](F)C6)nc4c3F)c12 (stereo partly drawn) [Example 127]
(B) Cc1ccn(C(=O)[C@H]2C[C@H]2CNc2nc(OC[C@@]34CCCN3C[C@H](F)C4)nc3c(F)c(-c4ccc(F)c5sc(N)c(C#N)c45)c(Cl)cc23)n1 [Example 182]
// returns A or B , whichever has the lower IC50 Give the chosen item's label as your response.
B
